These entries and their values trace back to the supplement of paper PMC10567573.

B1: CCDC6 (parent)
chain: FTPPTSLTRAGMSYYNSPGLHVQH

variants of: B1; test: protein stability index of a GFP-peptide fusion (GPS, HEK-293T) (PSI 1-6); higher = more stable; details: c terminus: a fixed tail appended;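 further: lentivirally expressed fusions sorted by FACS into six bins by GFP to DsRed ratio, PSI derived from sequencing read proportions per bin multiplied by bin number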
Outcome: label 1 for protein stability index of at least 2; label 0 for anything lower.

F1A :: label 1
Y15K :: label 1
H24G :: label 0
Q23I :: label 1

Qu. Hi, just wondering whether Y14C shows protein stability index of 2 or higher.
Ans. label 0

Qu. Hi, just wondering whether S6C shows protein stability index of 2 or higher.
Ans. label 1

Qu. Hi, just wondering whether S13Y shows protein stability index of 2 or higher.
Ans. label 0

Qu. Hi, just wondering whether S17D shows protein stability index of 2 or higher.
Ans. label 1

Qu. Hi, just wondering whether T5Y shows protein stability index of 2 or higher.
Ans. label 0

Qu. Hi, just wondering whether P3Q shows protein stability index of 2 or higher.
Ans. label 1

Qu. Hi, just wondering whether S13A shows protein stability index of 2 or higher.
Ans. label 1

Qu. Hi, just wondering whether L20N shows protein stability index of 2 or higher.
Ans. label 1

Qu. Hi, just wondering whether P18Y shows protein stability index of 2 or higher.
Ans. label 1

Qu. Hi, just wondering whether N16G shows protein stability index of 2 or higher.
Ans. label 0

Qu. Hi, just wondering whether V22I shows protein stability index of 2 or higher.
Ans. label 1

Qu. Hi, just wondering whether G11Y shows protein stability index of 2 or higher.
Ans. label 1

Qu. Hi, just wondering whether N16R shows protein stability index of 2 or higher.
Ans. label 0

Qu. Hi, just wondering whether T5F shows protein stability index of 2 or higher.
Ans. label 0

Qu. Hi, just wondering whether H21Q shows protein stability index of 2 or higher.
Ans. label 1

Qu. Hi, just wondering whether G11C shows protein stability index of 2 or higher.
Ans. label 0
